# System: PC3 (prostate)
# Protocol Description: SRB cell growth inhibition assay, PC3
# Format: cell-based
# Settings: Homo sapiens, PC3, 96 hours
Endpoint: IC50 (nM)
Give a bare numeral; the unit nM is implied.

Record request: IC50 value, item Nc1ccn([C@@H]2C(F)=C(CO)[C@@H](O)[C@H]2O)c(=O)n1 [RX-3117]
630

Ref: patent US7405214B2
